Every entry's value here was drawn from the supplement of paper PMC9732359.

Assay Name: protein stability index of a GFP-peptide fusion (yeast GPS) (PSI 1-4); higher = more stable; sorted into four equal gates, so the index is relative within each strain
Test Context: san1∆
The label depends only on protein stability index: Y if it is at least 3, N if it is smaller.

I'd appreciate it if you could say whether HTIFSDVCKTRFNHLVT [YML031W/NDC1] has protein stability index at least equal to 3. N

Test whether the sequence YGNPTSKESWRYDWYQP [RTT102] records protein stability index of 3 or higher. N

State whether the measured protein stability index reaches 3, counting equality as reaching it, for KLSKVQLYEDLCRYEDT [MED4] Y

Is the recorded value of protein stability index equal to or greater than 3 for this sequence? VSLTKRKQEREITSLRQ [YIL149C/MLP2] N

// inclusive: protein stability index at least 3? input: DTSDIIVDPTAEQLKIS [RRP46] N

Quick check, protein stability index >= 3? ADVSIKSILQEIRRSLS [POP5] N

Please check the record YHNKHMMCDFGTGNNNK [DIB1] and state if its protein stability index is at or above 3. N

Hi team, for IYQVPEKDLEHWLQLAK [POP1] , is the recorded protein stability index at or above 3? Y

Identify whether the reported protein stability index of the following sequence is 3 or greater: HQQQQQQQQQQQQQQQQ [SNF5] N

Check if protein stability index >= 3 (inclusive). Item: QIQKNVDLLQFPWLNAI [POP3] Y

Given YFFYASRPEYSCTFWSD [YJL039C/NUP192] , state whether its protein stability index is at least 3. N
